Reference source for all entries: paper PMC4068353

Below is a list of entries, each paired with its recorded Kd value.
Biological target: T1, 14-3-3-ζ (UniProt P63104 1-245)
T1 construct: 14-3-3 protein zeta; Expressed from the same modified pET16b vector as the integrin tails (His10, 3C site); also called 14-3-3-ζ wt; unlabeled 14-3-3-ζ; not shown: His10, N-terminal, cleaved
T1 sequence: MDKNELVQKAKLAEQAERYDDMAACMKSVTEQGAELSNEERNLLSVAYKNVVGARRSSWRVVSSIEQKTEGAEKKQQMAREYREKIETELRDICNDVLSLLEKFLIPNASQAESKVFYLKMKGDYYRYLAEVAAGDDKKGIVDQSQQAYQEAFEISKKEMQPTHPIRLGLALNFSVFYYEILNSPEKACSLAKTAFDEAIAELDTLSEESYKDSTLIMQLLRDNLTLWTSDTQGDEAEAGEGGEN
Assay: ITC; integrin tail fragment in the cell (80-200 μM), 14-3-3-ζ in the syringe (0.75-2 mM); 298 K; 20 mM sodium phosphate, 50 mM NaCl, pH 6.5; one-site model
Conditions: both partners purified
No end group written: not given here.
Number only, in µM; omit the unit.

Field: example entries. Status: answers known.
GSKLLMIIHDRREFAKFEKEKMNAKWDTGENPIYKSAVTTVVNPKYEGK (domain or fragment, human (from the printed UniProt entry), residues from the cloning tag at the N-terminus; integrin β1A cytoplasmic tail, residues 752-798 of UniProt P05556; 15N-labelled for NMR, unlabelled for ITC; also called β1A wt; not shown: His10, N-terminal, cleaved) [β1A integrin cytoplasmic tail, wild type]
280
PLFKSATTTVM (also: phospho-threonine at 758, integrin β2 cytoplasmic tail, residues 752-762 of UniProt P05107; T758 is phospho-threonine; also called short β2 phospho-peptide; source: synthetic peptide) [β2-11pT phospho-peptide]
4

Now take the following binder into account.
Prompt line: Please report the recorded Kd for KALIHLSDLREYRRFEKEKLKSQWNNDNPLFKSATTTVMNPKFAES (also: phospho-threonine at 758, integrin β2 cytoplasmic tail, residues 724-769 of UniProt P05107; T758 is phospho-threonine; also called long β2 phospho-peptide; source: synthetic peptide) [β2-45pT phospho-peptide] .
Response line: 8
